Catalogue of compounds with associated pIC50
- target_or_test_system: cGAS (Homo sapiens, UniProt Q8N884)
- Sequence (Q8N884 whole entry): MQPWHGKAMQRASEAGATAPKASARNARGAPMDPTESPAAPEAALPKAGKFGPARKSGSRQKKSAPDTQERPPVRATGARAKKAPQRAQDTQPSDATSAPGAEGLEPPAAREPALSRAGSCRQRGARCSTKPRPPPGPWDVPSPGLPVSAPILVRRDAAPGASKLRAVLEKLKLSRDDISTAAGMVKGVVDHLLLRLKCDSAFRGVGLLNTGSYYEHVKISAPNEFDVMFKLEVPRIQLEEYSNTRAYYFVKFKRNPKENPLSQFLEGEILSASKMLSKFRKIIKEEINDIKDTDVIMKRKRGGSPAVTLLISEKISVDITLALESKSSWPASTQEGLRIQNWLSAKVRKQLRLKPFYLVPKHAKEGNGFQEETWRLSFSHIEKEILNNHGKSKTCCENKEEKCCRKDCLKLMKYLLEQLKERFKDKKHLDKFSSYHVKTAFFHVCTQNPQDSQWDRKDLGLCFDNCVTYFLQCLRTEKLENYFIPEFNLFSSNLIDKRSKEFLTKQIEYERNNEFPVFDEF
- protocol_text: Cellular assay to measure cGAS activity (IFNb AlphaLISA in THP1 cells stimulated by RDG-Adenovirus-GFP)
- Type: cell-based
- Parameters: host or cells: THP1 cells differentiated with PMA and stimulated with RDG-Adenovirus-GFP
- experimental_conditions: PMA-differentiated THP1 cells, RDG-Adenovirus-GFP at 1000 MOI; inhibition of IFNb production as marker for cGAS activity
Note: pIC50 values are expressed as the negative base-10 logarithm of concentration in M.

compound | target_or_test_system | experimental_endpoint | observed_result
CC1C(=O)NCCc2c1c1c(OCC#N)cc(Cl)c(Cl)c1n2C (stereo not shown) | cGAS (Homo sapiens, UniProt Q8N884) | pIC50 | 6.09
CC1C(=O)NCCc2c1c1c(NCc3cnc[nH]3)cc(Cl)c(Cl)c1n2C (stereo not shown) | cGAS (Homo sapiens, UniProt Q8N884) | pIC50 | 5.92
Cn1ncc(-c2cc(Cl)c(Cl)c3[nH]c4c(c23)CC(=O)NC[C@H]4CC(C)(C)O)n1 (single isomer, unassigned) [Example 104] | cGAS (Homo sapiens, UniProt Q8N884) | pIC50 | 5.80

Q) Could you share which pIC50 value was measured for CC1C(=O)NCCc2c1c1c(NCCO)cc(Cl)c(Cl)c1n2C(F)F (racemic) ?
A) 5.89

Q) Item: CCC1CNC(=O)Cc2c1[nH]c1c(Cl)c(Cl)cc(NCCO)c21 (stereo not shown)
A) 5.79

Q) Another compound to look at: C[C@@H]1CNC(=O)[C@H](C)c2c1[nH]c1c(Cl)c(Cl)cc(NC(=O)CO)c21 (relative stereo)
A) 5.86
